- Tested on: NCI-H1755
- methodNotes: relative viability (nuclei count vs DMSO), 5 days (fraction); higher = more cells survive
- setupConditions: first compound 6.325 µM
# strict inequality: relative viability < 0.7 yields T, everything else yields F

>>> classification("COCC1(CO)C(=O)C2CCN1CC2 (stereo unspecified) [PRIMA-1MET] + C[C@]1(O)C[C@@H](c2nc(-c3ccc4ccc(-c5ccccc5)nc4c3)c3c(N)nccn32)C1 [Linsitinib] (partner 1 µM)")
"F"
>>> classification("COCC1(CO)C(=O)C2CCN1CC2 (stereo unspecified) [PRIMA-1MET] + Cc1nc(NC(=O)N2CCC[C@H]2C(N)=O)sc1-c1ccnc(C(C)(C)C(F)(F)F)c1 [Alpelisib] (partner 2 µM)")
"F"
>>> classification("COCC1(CO)C(=O)C2CCN1CC2 (stereo unspecified) [PRIMA-1MET] + CC(=O)Nc1cccc(-n2c(=O)n(C3CC3)c(=O)c3c(Nc4ccc(I)cc4F)n(C)c(=O)c(C)c32)c1 [Trametinib] (partner 0.02 µM)")
"F"
>>> classification("COCC1(CO)C(=O)C2CCN1CC2 (stereo unspecified) [PRIMA-1MET] + N=C(N)NC(=N)NCCc1ccccc1 [Phenformin] (partner 250 µM)")
"T"
>>> classification("COCC1(CO)C(=O)C2CCN1CC2 (stereo unspecified) [PRIMA-1MET] + CS(=O)(=O)CCNCc1ccc(-c2ccc3ncnc(Nc4ccc(OCc5cccc(F)c5)c(Cl)c4)c3c2)o1 [Lapatinib] (partner 2 µM)")
"F"
>>> classification("COCC1(CO)C(=O)C2CCN1CC2 (stereo unspecified) [PRIMA-1MET] + NC(=O)Nc1cc(-c2cccc(F)c2)sc1C(=O)N[C@H]1CCCNC1 [AZD7762] (partner 0.2 µM)")
"T"

---

// reported relative viability per item
- Tested on: SK-MES-1
- methodNotes: relative viability (nuclei count vs DMSO), 5 days (fraction); higher = more cells survive
- setupConditions: first compound 0.1 µM
recordedMetric: relative viability

>>> observedmeasurement("CCN(CC)CCCCNc1ncc2cc(-c3cc(OC)cc(OC)c3)c(NC(=O)NC(C)(C)C)nc2n1 + N=C(N)NC(=N)NCCc1ccccc1 [Phenformin] (partner 250 µM)")
0.637
>>> observedmeasurement("CCN(CC)CCCCNc1ncc2cc(-c3cc(OC)cc(OC)c3)c(NC(=O)NC(C)(C)C)nc2n1 + C[C@]1(O)C[C@@H](c2nc(-c3ccc4ccc(-c5ccccc5)nc4c3)c3c(N)nccn32)C1 [Linsitinib] (partner 1 µM)")
1.16
>>> observedmeasurement("O=c1cc(N2CCOCC2)oc2c(-c3cccc4c3sc3ccccc34)cccc12 + CC1(C)CCC(c2ccc(Cl)cc2)=C(CN2CCN(c3ccc(C(=O)NS(=O)(=O)c4ccc(N[C@H](CCN5CCOCC5)CSc5ccccc5)c(S(=O)(=O)C(F)(F)F)c4)cc3)CC2)C1 [Navitoclax] (partner 0.5 µM)")
1.43
>>> observedmeasurement("O=c1cc(N2CCOCC2)oc2c(-c3cccc4c3sc3ccccc34)cccc12 + CCNC(=O)c1noc(-c2cc(C(C)C)c(O)cc2O)c1-c1ccc(CN2CCOCC2)cc1 [Luminespib] (partner 0.01 µM)")
0.736
>>> observedmeasurement("O=c1cc(N2CCOCC2)oc2c(-c3cccc4c3sc3ccccc34)cccc12 + COc1cc2c(Oc3ccc(NC(=O)C4(C(=O)Nc5ccc(F)cc5)CC4)cc3F)ccnc2cc1OCCCN1CCOCC1 [Foretinib] (partner 0.25 µM)")
0.847
>>> observedmeasurement("O=c1cc(N2CCOCC2)oc2c(-c3cccc4c3sc3ccccc34)cccc12 + O=C(CCCCCCC(=O)Nc1ccccc1)NO [Vorinostat] (partner 1 µM)")
1.04
>>> observedmeasurement("O=c1cc(N2CCOCC2)oc2c(-c3cccc4c3sc3ccccc34)cccc12 + Cc1nc(NC(=O)N2CCC[C@H]2C(N)=O)sc1-c1ccnc(C(C)(C)C(F)(F)F)c1 [Alpelisib] (partner 2 µM)")
0.867
>>> observedmeasurement("CCN(CC)CCCCNc1ncc2cc(-c3cc(OC)cc(OC)c3)c(NC(=O)NC(C)(C)C)nc2n1 + CCNC(=O)c1noc(-c2cc(C(C)C)c(O)cc2O)c1-c1ccc(CN2CCOCC2)cc1 [Luminespib] (partner 0.01 µM)")
0.832
